# target_under_test: human α1G T-type channels (Homo sapiens, UniProt O43497)
# Construct: expressed in transfected cells; host or cells: HEK 293
# Sequence (O43497 whole entry): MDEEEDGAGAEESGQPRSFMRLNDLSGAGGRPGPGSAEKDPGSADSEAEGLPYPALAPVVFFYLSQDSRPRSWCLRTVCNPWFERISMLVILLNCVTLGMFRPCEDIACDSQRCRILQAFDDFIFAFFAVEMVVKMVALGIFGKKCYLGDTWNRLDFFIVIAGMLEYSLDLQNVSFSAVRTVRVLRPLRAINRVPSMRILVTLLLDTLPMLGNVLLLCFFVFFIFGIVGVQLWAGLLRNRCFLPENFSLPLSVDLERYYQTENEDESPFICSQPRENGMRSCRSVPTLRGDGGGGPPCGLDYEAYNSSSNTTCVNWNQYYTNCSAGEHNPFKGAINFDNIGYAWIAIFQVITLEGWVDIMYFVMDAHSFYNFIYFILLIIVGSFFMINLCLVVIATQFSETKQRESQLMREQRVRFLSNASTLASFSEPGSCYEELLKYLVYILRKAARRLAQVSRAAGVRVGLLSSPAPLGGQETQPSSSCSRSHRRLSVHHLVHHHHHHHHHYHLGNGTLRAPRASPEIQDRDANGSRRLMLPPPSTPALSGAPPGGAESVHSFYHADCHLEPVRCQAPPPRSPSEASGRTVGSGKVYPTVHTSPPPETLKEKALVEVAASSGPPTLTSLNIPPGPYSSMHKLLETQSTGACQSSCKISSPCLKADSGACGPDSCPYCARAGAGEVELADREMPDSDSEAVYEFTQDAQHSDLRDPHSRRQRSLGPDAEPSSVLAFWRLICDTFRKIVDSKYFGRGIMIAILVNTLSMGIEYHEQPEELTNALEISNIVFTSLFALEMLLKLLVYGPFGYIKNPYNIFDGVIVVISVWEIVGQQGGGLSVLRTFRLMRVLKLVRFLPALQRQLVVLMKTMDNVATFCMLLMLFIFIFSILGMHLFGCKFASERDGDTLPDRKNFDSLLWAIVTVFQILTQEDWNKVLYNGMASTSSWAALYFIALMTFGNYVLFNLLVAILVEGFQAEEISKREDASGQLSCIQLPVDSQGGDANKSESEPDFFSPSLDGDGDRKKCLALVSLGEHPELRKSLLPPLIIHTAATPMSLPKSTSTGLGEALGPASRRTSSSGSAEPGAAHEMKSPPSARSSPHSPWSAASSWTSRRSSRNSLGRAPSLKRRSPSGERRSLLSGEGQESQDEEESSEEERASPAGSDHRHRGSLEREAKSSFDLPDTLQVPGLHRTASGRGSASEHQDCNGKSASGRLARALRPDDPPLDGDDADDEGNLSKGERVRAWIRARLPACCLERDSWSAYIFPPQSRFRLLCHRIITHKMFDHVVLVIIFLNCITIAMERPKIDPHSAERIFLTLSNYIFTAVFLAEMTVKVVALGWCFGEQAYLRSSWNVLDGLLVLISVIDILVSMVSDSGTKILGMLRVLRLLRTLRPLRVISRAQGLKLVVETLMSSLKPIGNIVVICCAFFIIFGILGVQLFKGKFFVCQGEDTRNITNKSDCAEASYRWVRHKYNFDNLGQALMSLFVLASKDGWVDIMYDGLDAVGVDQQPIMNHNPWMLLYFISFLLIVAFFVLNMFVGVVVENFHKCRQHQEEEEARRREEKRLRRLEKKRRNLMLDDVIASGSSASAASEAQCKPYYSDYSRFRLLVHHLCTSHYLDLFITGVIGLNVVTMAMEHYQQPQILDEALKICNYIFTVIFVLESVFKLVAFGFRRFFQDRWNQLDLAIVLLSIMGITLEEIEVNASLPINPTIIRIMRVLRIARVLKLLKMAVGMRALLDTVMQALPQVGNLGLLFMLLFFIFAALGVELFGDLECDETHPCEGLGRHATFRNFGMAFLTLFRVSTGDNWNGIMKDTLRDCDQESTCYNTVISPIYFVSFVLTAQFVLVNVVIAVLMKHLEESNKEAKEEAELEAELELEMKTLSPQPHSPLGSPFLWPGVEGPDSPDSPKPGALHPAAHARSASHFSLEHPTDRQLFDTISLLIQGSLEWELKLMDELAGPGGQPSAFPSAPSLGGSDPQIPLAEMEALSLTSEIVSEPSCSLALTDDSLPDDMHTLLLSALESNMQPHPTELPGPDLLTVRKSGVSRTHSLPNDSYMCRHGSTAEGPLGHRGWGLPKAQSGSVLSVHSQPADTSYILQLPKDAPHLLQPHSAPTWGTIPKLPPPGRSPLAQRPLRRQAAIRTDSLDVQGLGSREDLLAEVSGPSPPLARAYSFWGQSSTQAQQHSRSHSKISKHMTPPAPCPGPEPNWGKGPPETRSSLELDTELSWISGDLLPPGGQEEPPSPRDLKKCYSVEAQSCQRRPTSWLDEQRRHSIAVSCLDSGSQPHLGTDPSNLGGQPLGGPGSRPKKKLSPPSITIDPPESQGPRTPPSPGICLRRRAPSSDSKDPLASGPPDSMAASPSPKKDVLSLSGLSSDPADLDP
# method_notes: T-type calcium channel block, whole cell patch clamp in HEK cells (α1G)
# Type: cell-based
# study_conditions: HEK cells, patch clamp, mainly non-inactivated protocol; values above 10 μM shown as 10 μM, below 0.30 μM shown as 0.30 μM; read-out: T-type Calcium Channel Block α1G IC50
property: IC50

Please review the following examples before continuing.
{"columns": ["molecule", "IC50"],
 "data": [
  ["CC(C)(C)C(CN1CCC(CC(=O)NCc2cc(Cl)cc(Cl)c2)CC1)NS(=O)(=O)C1CC1 (stereo not shown) [Compound 209]", "8.6 µM"],
  ["CS(=O)(=O)c1cc(C(=O)NCC2CCN(CC(=O)NC3CCCC3)CC2)cc(C(F)(F)F)c1 [Compound 585]", "> 10 µM"],
  ["O=C(CN1CCC(CNC(=O)c2cc(F)cc(Cl)c2)CC1)NC1(C2CCOCC2)CC1 [Compound 563]", "< 0.3 µM"],
  ["CC(C)(C(=O)NCCN1CCC(CNC(=O)c2cccc(Br)c2)CC1)C(F)(F)F [Compound 493]", "< 0.3 µM"],
  ["Cc1cc(C)cc(C(=O)NCC2CCN(CCNC(=O)C3CCCC3)CC2)c1 [Compound 392]", "2.01 µM"]
]}

Prompt line: So what does the record say about IC50 for CC(C)(F)CNC(=O)CN1CCC(CNC(=O)c2cccc(Cl)c2)CC1 [Compound 554] ?
Response line: > 10 µM

Prompt line: Which IC50 is listed for NC1(C(=O)N2CCC(CNC(=O)c3cc(C(F)(F)F)cc(C(F)(F)F)c3)CC2)CCCC1 [Compound 85] ?
Response line: > 10 µM

----------
# target_under_test: human α1H T-type channels (Homo sapiens)
# Construct: expressed in transfected cells; host or cells: HEK 293
# Sequence (O95180 whole entry): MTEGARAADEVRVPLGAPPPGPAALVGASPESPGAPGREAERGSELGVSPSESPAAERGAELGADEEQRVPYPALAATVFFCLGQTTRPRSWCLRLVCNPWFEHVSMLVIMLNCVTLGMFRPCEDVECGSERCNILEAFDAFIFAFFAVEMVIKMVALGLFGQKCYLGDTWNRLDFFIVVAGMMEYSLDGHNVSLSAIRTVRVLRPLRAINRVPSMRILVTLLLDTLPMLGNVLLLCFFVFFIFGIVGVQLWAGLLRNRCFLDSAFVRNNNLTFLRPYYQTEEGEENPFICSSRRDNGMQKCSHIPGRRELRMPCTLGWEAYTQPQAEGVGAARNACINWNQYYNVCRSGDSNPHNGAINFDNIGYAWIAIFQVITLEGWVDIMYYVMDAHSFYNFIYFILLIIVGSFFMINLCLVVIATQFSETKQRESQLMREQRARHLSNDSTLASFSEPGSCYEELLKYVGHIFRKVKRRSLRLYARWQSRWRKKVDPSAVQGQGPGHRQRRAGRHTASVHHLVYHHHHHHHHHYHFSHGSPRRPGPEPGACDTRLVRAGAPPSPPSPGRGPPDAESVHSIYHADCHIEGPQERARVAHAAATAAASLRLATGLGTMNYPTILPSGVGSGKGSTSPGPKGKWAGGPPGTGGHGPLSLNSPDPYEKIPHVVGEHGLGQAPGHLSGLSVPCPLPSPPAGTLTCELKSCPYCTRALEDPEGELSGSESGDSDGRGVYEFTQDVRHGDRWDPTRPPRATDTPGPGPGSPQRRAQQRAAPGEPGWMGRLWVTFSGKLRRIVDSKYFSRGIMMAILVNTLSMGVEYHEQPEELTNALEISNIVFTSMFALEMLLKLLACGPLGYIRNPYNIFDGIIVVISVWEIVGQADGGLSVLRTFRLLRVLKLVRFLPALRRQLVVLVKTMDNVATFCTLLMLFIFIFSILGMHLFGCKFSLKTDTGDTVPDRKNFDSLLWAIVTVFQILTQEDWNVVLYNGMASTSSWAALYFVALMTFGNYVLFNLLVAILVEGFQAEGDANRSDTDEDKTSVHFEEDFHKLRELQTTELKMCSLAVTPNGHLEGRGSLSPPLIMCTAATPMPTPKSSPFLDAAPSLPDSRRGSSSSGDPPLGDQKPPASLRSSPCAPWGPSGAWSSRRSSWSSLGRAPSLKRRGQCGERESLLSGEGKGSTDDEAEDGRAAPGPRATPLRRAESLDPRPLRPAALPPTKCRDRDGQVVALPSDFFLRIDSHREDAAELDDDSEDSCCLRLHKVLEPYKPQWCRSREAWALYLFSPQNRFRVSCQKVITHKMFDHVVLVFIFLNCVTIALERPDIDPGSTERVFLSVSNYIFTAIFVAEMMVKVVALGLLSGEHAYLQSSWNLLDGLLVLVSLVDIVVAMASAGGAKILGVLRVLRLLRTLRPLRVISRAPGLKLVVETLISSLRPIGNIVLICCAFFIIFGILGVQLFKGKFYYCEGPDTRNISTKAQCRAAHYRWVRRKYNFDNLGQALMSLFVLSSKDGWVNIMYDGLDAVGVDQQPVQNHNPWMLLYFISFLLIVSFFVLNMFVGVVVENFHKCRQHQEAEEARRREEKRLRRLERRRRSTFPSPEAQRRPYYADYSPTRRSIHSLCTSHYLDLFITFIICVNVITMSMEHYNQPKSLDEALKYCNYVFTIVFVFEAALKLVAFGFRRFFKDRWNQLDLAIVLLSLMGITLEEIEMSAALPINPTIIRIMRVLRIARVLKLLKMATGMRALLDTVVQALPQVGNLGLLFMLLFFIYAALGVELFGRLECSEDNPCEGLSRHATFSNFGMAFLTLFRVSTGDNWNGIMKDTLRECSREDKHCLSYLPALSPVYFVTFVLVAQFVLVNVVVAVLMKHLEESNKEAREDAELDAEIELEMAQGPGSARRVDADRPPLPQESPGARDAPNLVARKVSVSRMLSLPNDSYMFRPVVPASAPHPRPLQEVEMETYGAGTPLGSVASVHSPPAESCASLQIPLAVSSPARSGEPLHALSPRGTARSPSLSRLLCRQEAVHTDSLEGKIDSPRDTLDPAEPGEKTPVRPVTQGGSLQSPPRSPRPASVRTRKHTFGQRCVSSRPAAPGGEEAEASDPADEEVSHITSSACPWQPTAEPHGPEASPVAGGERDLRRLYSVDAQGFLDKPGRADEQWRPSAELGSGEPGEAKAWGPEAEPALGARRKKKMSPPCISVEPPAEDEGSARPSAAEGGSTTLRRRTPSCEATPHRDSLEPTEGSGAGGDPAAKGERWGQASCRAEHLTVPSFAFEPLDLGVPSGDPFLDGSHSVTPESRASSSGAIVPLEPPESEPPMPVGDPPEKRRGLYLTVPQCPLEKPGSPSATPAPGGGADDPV
# method_notes: T-type calcium channel block, whole cell patch clamp in HEK cells (α1H)
# Assay type: cell-based
# study_conditions: HEK cells, patch clamp, mainly non-inactivated protocol; values above 10 μM shown as 10 μM; read-out: T-type Calcium Channel Block α1H IC50
property: IC50 (µM)

// below: answered molecules
{"columns": ["molecule", "target_under_test", "unit_abbrev", "IC50"],
 "data": [
  ["CC(C)(C)NS(=O)(=O)CCN1CCC(CNC(=O)c2cc(F)cc(C(F)(F)F)c2)CC1 [Compound 514]", "human α1H T-type channels (Homo sapiens)", "µM", 0.31],
  ["O=C(NCC1CCN(CCNC(=O)C2(C(F)(F)F)CC2)CC1)c1cccc(C(F)(F)F)c1 [Compound 473]", "human α1H T-type channels (Homo sapiens)", "µM", 0.13],
  ["COc1cc(F)cc(C(=O)NCC2CCN(CC(=O)N(C)C3(C)CCC3)CC2)c1 [Compound 584]", "human α1H T-type channels (Homo sapiens)", "µM", 0.28],
  ["COC1CCN(C(=O)CN2CCC(CNC(=O)c3cc(C(F)(F)F)cc(C(F)(F)F)c3)CC2)CC1 [Compound 103]", "human α1H T-type channels (Homo sapiens)", "µM", 1.21],
  ["Cc1cc(F)cc(C(=O)NCC2CCN(CC(=O)NC(C)(C)C)CC2)c1 [Compound 363]", "human α1H T-type channels (Homo sapiens)", "µM", 0.2],
  ["O=C(NCC1CCN(CCNC(=O)C2CCCC2)CC1)c1cc(C(F)(F)F)cc(C(F)(F)F)c1 [Compound 62]", "human α1H T-type channels (Homo sapiens)", "µM", 0.23]
]}

P = CC(C)(C)OC(=O)N1CCC(O)(CN2CCC(CNC(=O)c3cc(F)cc(C(F)(F)F)c3)CC2)CC1 [Compound 599]
Q = CC1(NC(=O)CN2CCC(CNC(=O)c3ccc(F)cc3)CC2)CCC1 [Compound 529]
R = CCC1CCCN1CC(=O)N1CCC(CNC(=O)c2cc(F)cc(C(F)(F)F)c2)CC1 (centres unmarked) [Compound 280]
S = CCCNC(=O)CN1CCC(CNC(=O)c2cc(C(F)(F)F)cc(C(F)(F)F)c2)CC1 [Compound 345]
Prompt line: # desc sort on IC50 across 4 molecules A ranking is expressed here by listing the labels in the requested order.
Response line: R, Q, P, S

Just for reference, patent US8569344B2 is where these values come from.
